System: human lung cancer (A549) cell line
test.method.notes: Cytotoxic activity, MTT assay, lung (A549)
run.conditions: Conc.: 5a 215.26, 5d 202.19, 5e 196.61, 5f 189.03, 7a 203.44, 7f 179.85, DOX 183.99
assay.endpoint: Viability %, A549, 5th concentration (%)
Note: unit % is implicit; provide only the numeric part.

These solved cases illustrate the format of a correct answer.
smiles.data | experimental.result
COc1ccc(Nc2n[nH]c(N=Cc3c(C)n(C)n(-c4ccccc4)c3=O)c2C(=O)Nc2ccc(Cl)cc2)cc1 | 18.95
COc1ccc(Nc2n[nH]c(N=Cc3ccc(N4CCCCC4)cc3)c2C(=O)Nc2ccc(Cl)cc2)cc1 | 20.20
COc1ccc(Nc2n[nH]c(/N=C/c3ccc(N4CCCCC4)cc3)c2C(=O)Nc2ccc(C)cc2)cc1 | 18.60
COc1ccc(Nc2n[nH]c(/N=C/c3ccc(N4CCCCC4)cc3)c2C(=O)Nc2ccccc2)cc1 | 18.10
Cc1c(C=Nc2[nH]nc(Nc3ccccc3)c2C(=O)Nc2ccccc2)c(=O)n(-c2ccccc2)n1C | 18.60

Provide measured Viability %, A549, 5th concentration value, entry: O=C(Nc1ccccc1)c1c(Nc2ccccc2)n[nH]c1N=Cc1ccc(N2CCCCC2)cc1
20.20

These measurements were taken from paper PMC11125359.
